Molecular target: pol eta core T329I T329I (Homo sapiens)
Sequence: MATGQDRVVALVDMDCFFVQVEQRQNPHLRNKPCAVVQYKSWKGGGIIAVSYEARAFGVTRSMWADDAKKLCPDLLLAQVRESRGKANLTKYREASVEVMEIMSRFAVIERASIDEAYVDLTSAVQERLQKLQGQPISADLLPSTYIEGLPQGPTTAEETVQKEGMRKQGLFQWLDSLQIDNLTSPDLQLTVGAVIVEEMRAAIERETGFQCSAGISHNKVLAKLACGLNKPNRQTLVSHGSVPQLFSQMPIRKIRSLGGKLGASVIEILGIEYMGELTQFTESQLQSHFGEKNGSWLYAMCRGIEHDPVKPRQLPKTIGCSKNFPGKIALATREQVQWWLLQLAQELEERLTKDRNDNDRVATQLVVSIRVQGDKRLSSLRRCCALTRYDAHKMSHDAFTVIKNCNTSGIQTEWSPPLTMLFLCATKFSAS
Assay: fluorescence polarization
Settings: cis-syn cyclobutane thymine dimer at T7-T8 of the 25-mer template; 50 mM HEPES-KOH pH 7.5, 10 mM potassium acetate, 2 mM beta-mercaptoethanol, 0.1 mg/mL BSA, 5 mM MgCl2; 2 nM DNA; temperature not stated
attributeMeasured: pKd
Expect pKd as a plain number equal to -log10 of the molar concentration.

The recorded pKd for CACCATCCACTAC / ATGTAGTTGTAGTGGATGGTGGTAC [13-FAM-mer/25-CTD-mer] is 8.23

---

Target: pol eta core C34W C34W (Homo sapiens) (UniProt Q9Y253)
Sequence: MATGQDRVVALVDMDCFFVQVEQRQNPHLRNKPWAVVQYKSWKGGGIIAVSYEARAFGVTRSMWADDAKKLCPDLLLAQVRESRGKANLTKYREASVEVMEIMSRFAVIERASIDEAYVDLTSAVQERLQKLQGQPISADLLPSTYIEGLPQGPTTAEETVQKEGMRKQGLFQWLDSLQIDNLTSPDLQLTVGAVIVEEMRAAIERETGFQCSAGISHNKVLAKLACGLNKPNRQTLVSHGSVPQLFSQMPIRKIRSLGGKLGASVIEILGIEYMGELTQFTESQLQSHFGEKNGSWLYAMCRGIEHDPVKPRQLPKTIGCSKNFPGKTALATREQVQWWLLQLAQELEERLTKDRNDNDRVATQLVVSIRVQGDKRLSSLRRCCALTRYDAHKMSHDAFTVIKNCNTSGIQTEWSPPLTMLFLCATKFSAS
Experiment: fluorescence polarization
Settings: cis-syn cyclobutane thymine dimer at T7-T8 of the 25-mer template; 50 mM HEPES-KOH pH 7.5, 10 mM potassium acetate, 2 mM beta-mercaptoethanol, 0.1 mg/mL BSA, 5 mM MgCl2; 2 nM DNA; temperature not stated
attributeMeasured: pKd
Expect pKd as a plain number equal to -log10 of the molar concentration.

The recorded pKd for CACCATCCACTAC / ATGTAGTTGTAGTGGATGGTGGTAC [13-FAM-mer/25-CTD-mer] is 8.23

---

Target: pol eta core C34W C34W (Homo sapiens)
Sequence: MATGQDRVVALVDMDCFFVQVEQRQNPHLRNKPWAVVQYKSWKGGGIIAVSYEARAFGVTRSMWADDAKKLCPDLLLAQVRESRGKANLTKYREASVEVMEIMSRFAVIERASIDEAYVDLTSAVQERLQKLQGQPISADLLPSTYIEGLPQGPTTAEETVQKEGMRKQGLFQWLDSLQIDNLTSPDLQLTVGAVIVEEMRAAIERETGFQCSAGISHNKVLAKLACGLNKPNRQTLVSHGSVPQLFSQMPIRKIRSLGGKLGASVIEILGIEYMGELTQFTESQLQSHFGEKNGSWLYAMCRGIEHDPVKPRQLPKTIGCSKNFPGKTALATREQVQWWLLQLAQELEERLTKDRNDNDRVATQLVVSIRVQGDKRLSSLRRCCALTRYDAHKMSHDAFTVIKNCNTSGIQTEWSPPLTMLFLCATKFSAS
Assay: fluorescence polarization
Settings: 50 mM HEPES-KOH pH 7.5, 10 mM potassium acetate, 2 mM beta-mercaptoethanol, 0.1 mg/mL BSA, 5 mM MgCl2; 2 nM DNA; temperature not stated
attributeMeasured: pKd
Expect pKd as a plain number equal to -log10 of the molar concentration.

The recorded pKd for CACCATCCACTAC / ATGTAGTTGTAGTGGATGGTGGTAC [13-FAM-mer/25-TT-mer] is 8.21
